tested on: carbapenemase producing K. pneumoniae; assay: MIC by broth micro-dilution (CLSI), carbapenemase producing K. pneumoniae; type: cell-based, Klebsiella pneumoniae; settings: Klebsiella pneumoniae, ATCCBAA1705, KPC-2 K. pneumoniae ATCC BAA-1705; read-out: MIC
Assay endpoint: MIC (µg/mL)
Numeric answer only, unit µg/mL assumed.

# annotated cases, reported MIC shown
[[record]]
compound = "C[C@@H](NC(=O)C(F)F)[C@H]1C(=O)N2C(C(=O)O)=C(S[C@@H]3CN[C@H](C(=O)N4CCC(N)CC4)C3)[C@H](C)[C@H]12"
assay_endpoint = "MIC"
unit_label = "µg/mL"
measured = 4

[[record]]
compound = "C[C@@H](NC(=O)Cn1cnnn1)[C@H]1C(=O)N2C(C(=O)O)=C(S[C@@H]3CN[C@H](C(=O)N4C[C@@H](O)[C@H](O)C4)C3)[C@H](C)[C@H]12"
assay_endpoint = "MIC"
unit_label = "µg/mL"
measured = 1

[[record]]
compound = "C[C@@H](NC(=O)Cn1cnnn1)[C@H]1C(=O)N2C(C(=O)O)=C(S[C@@H]3CN[C@H](C(=O)N4CCC5CNCCC54)C3)C[C@H]12 (some centres unmarked)"
assay_endpoint = "MIC"
unit_label = "µg/mL"
measured = 64

[[record]]
compound = "C[C@@H](NC(=O)CN1CCNCC1)[C@H]1C(=O)N2C(C(=O)O)=C(S[C@@H]3CN[C@H](C(=O)N(C)C)C3)[C@H](C)[C@H]12"
assay_endpoint = "MIC"
unit_label = "µg/mL"
measured = 8

[[record]]
compound = "CNCCN(C)C(=O)[C@@H]1C[C@H](SC2=C(C(=O)O)N3C(=O)[C@H]([C@@H](C)NC(=O)C(F)F)[C@H]3[C@H]2C)CN1"
assay_endpoint = "MIC"
unit_label = "µg/mL"
measured = 4


Would you please give the reported MIC of C[C@@H](NC(=O)[C@H]1CC[C@@H](N)C1)[C@H]1C(=O)N2C(C(=O)O)=C(S[C@@H]3CN[C@H](C(=O)N(C)C)C3)[C@H](C)[C@H]12 with carbapenemase producing K. pneumoniae?
8

Would you please give the reported MIC of CNCC(=O)N[C@H](C)[C@H]1C(=O)N2C(C(=O)O)=C(S[C@@H]3CN[C@H](C(=O)N4CC(N)C4)C3)[C@H](C)[C@H]12 with carbapenemase producing K. pneumoniae?
8

Would you please give the reported MIC of C[C@@H](NC(=O)Cn1cnnn1)[C@H]1C(=O)N2C(C(=O)O)=C(S[C@@H]3CN[C@H](C(=O)N4CCCC45CCNCC5)C3)[C@H](C)[C@H]12 with carbapenemase producing K. pneumoniae?
2

Would you please give the reported MIC of COCc1cn([C@H](C)[C@H]2C(=O)N3C(C(=O)O)=C(S[C@@H]4CN[C@H](C(=O)N(C)C)C4)[C@H](C)[C@H]23)nn1 with carbapenemase producing K. pneumoniae?
4

Would you please give the reported MIC of CNCC(=O)N[C@H](C)[C@H]1C(=O)N2C(C(=O)O)=C(S[C@@H]3CN[C@H](CNS(=O)(=O)N4CCNCC4)C3)[C@H](C)[C@H]12 with carbapenemase producing K. pneumoniae?
4

---

tested on: carbapenemase producing K. pneumoniae; assay: MIC by broth micro-dilution (CLSI), carbapenemase producing K. pneumoniae; type: cell-based, Klebsiella pneumoniae; details: Klebsiella pneumoniae, ATCCBAA1705, KPC-2 K. pneumoniae ATCC BAA-1705; read-out: MIC
Assay endpoint: log10 of MIC (log10 of the value in µg/mL)
Use the decimal logarithm of MIC (µg/mL).

[[record]]
compound = "COc1nnnn1CC(=O)N[C@H](C)[C@H]1C(=O)N2C(C(=O)O)=C(S[C@@H]3CN[C@H](C(=O)N(C)C)C3)[C@H](C)[C@H]12"
measured = 0.30


Give log10 of MIC for the following compound: C[C@@H](NC(=O)Cn1cnnn1)[C@H]1C(=O)N2C(C(=O)O)=C(S[C@@H]3CN[C@H](C(=O)N(CCO)CCO)C3)[C@H](C)[C@H]12
0.00

Give log10 of MIC for the following compound: C[C@@H](NC(=O)Cn1nnnc1C1CC1)[C@H]1C(=O)N2C(C(=O)O)=C(S[C@@H]3CN[C@H](C(=O)N(C)C)C3)[C@H](C)[C@H]12
0.30

Give log10 of MIC for the following compound: CNC(=O)CC(=O)N[C@H](C)[C@H]1C(=O)N2C(C(=O)O)=C(S[C@@H]3CN[C@H](C(=O)N(C)C)C3)[C@H](C)[C@H]12
1.81

Give log10 of MIC for the following compound: C[C@@H](NC(=O)Cn1cnnn1)[C@H]1C(=O)N2C(C(=O)O)=C(S[C@@H]3CN[C@H](C(=O)N4CCN(C(=O)[C@@H](N)CN)CC4)C3)[C@H](C)[C@H]12
0.30

Give log10 of MIC for the following compound: C[C@@H](NC(=O)Cn1cnnn1)C1C(=O)N2C(C(=O)O)=C(S[C@@H]3CN[C@H](C(=O)N4CCN(C[C@@H](F)CN)CC4)C3)[C@H](C)C12 (stereo in doubt)
0.00

Give log10 of MIC for the following compound: CNC[C@@H]1C[C@H](N)CN1C(=O)[C@@H]1C[C@H](SC2=C(C(=O)O)N3C(=O)[C@H]([C@@H](C)NC(=O)C(F)F)[C@H]3[C@H]2C)CN1
1.20

Give log10 of MIC for the following compound: C[C@@H](NC(=O)Cn1cnnn1)[C@H]1C(=O)N2C(C(=O)O)=C(S[C@@H]3CN[C@H](C(=O)N4CCC5(CCCN5)CC4)C3)[C@H](C)[C@H]12
0.30

Give log10 of MIC for the following compound: C[C@@H](NC(=O)C(F)F)[C@H]1C(=O)N2C(C(=O)O)=C(S[C@@H]3CN[C@H](C(=O)N4CCN(C)CC4)C3)[C@H](C)[C@H]12
0.90

Give log10 of MIC for the following compound: CNCC(=O)N[C@H](C)[C@H]1C(=O)N2C(C(=O)O)=C(S[C@@H]3CN[C@H](C(=O)N4C[C@H](N)[C@@H](F)C4)C3)[C@H](C)[C@H]12
0.00

Give log10 of MIC for the following compound: C[C@@H](NC(=O)Cc1nnnn1C)[C@H]1C(=O)N2C(C(=O)O)=C(S[C@@H]3CN[C@H](C(=O)N(C)C)C3)[C@H](C)[C@H]12
0.60

---

test system: carbapenem sensitive Escherichia coli; assay: MIC by broth micro-dilution (CLSI), carbapenem sensitive E. coli; assay type: cell-based; conditions: ESBL −ve E. coli ATCC25922
Assay endpoint: MIC (µg/mL)
Numeric answer only, unit µg/mL assumed.

[[record]]
compound = "C[C@@H](NC(=O)Cn1cnnn1)[C@H]1C(=O)N2C(C(=O)O)=C(S[C@@H]3CN[C@H](C(=O)N4CC5CCNC5C4)C3)[C@H](C)[C@H]12 (stereo partly drawn)"
measured = 0.25

[[record]]
compound = "C[C@@H](NC(=O)Cn1cnnn1)[C@H]1C(=O)N2C(C(=O)[O-])=C(S[C@@H]3CN[C@H](C(=O)N4CCC5C[N+](C)(C)CCC54)C3)[C@H](C)[C@H]12 (stereo partly drawn)"
measured = 1


Give MIC for the following compound: C[C@@H](NC(=O)Cn1cnnn1)[C@H]1C(=O)N2C(C(=O)O)=C(S[C@@H]3CN[C@H](C(=O)N4CCC5CNCC5(C(=O)O)C4)C3)[C@H](C)[C@H]12 (stereo partly drawn)
0.25

---

tested on: carbapenem sensitive Escherichia coli; test: MIC by broth micro-dilution (CLSI), carbapenem sensitive E. coli; assay type: cell-based; details: ESBL −ve E. coli ATCC25922
Assay endpoint: MIC (µg/mL)
Numeric answer only, unit µg/mL assumed.

# annotated cases, reported MIC shown
[[record]]
compound = "C[C@@H](NC(=O)Cn1cnnn1)[C@H]1C(=O)N2C(C(=O)O)=C(S[C@@H]3CN[C@H](C(=O)N4CC5CCNCC5(CO)C4)C3)[C@H](C)[C@H]12 (single isomer, unassigned)"
tested_system = "carbapenem sensitive Escherichia coli"
assay_endpoint = "MIC"
measured = 0.25

[[record]]
compound = "C[C@@H](NC(=O)C(F)F)[C@H]1C(=O)N2C(C(=O)O)=C(S[C@@H]3CN[C@H](C(=O)N4CC[C@@H](F)C4)C3)[C@H](C)[C@H]12"
tested_system = "carbapenem sensitive Escherichia coli"
assay_endpoint = "MIC"
measured = 1


--- query ---
Give MIC for the following compound: C[C@@H](NC(=O)Cn1cnnn1)[C@H]1C(=O)N2C(C(=O)O)=C(S[C@@H]3CN[C@H](C(=O)N4CCC5NCCCC54)C3)[C@H](C)[C@H]12 (single isomer, unassigned)
0.5

---

tested on: carbapenemase producing K. pneumoniae; test: MIC by broth micro-dilution (CLSI), carbapenemase producing K. pneumoniae; format: cell-based, Klebsiella pneumoniae; details: Klebsiella pneumoniae, ATCCBAA1705, KPC-2 K. pneumoniae ATCC BAA-1705; read-out: MIC
Assay endpoint: MIC

# annotated cases, reported MIC shown
[[record]]
compound = "C[C@@H](NC(=O)Cn1cnnn1)[C@H]1C(=O)N2C(C(=O)O)=C(S[C@@H]3CN[C@H](C(=O)N4CC5CNC5C4)C3)[C@H](C)[C@H]12 (single isomer, unassigned)"
measured = "1 µg/mL"

[[record]]
compound = "C[C@@H](NC(=O)C(F)F)[C@H]1C(=O)N2C(C(=O)O)=C(S[C@@H]3CN[C@H](C(=O)N4CC[C@@H](NC(=O)CN)C4)C3)[C@H](C)[C@H]12"
measured = "8 µg/mL"

[[record]]
compound = "CC(=O)N1C[C@@H](N)C[C@H]1CSC1=C(C(=O)O)N2C(=O)[C@H]([C@@H](C)NC(=O)C(F)F)[C@H]2[C@H]1C"
measured = "8 µg/mL"

[[record]]
compound = "C[C@@H](NC(=O)Cn1cnnn1)[C@H]1C(=O)N2C(C(=O)O)=C(S[C@@H]3CN[C@H](C(=O)N4CC[C@@H](NC(=N)N)C4)C3)[C@H](C)[C@H]12"
measured = "2 µg/mL"


--- query ---
Give MIC for the following compound: C[C@@H](NC(=O)Cn1cnnn1)[C@H]1C(=O)N2C(C(=O)O)=C(S[C@@H]3CN[C@H](C(=O)N4C[C@@H]5NC(=N)N[C@@H]5C4)C3)[C@H](C)[C@H]12
1 µg/mL

The reported numbers originate from patent US11180504B2.
